Molecular target: CDK8/Cyclin C (Homo sapiens (Human))
Sequence (P49336 whole entry): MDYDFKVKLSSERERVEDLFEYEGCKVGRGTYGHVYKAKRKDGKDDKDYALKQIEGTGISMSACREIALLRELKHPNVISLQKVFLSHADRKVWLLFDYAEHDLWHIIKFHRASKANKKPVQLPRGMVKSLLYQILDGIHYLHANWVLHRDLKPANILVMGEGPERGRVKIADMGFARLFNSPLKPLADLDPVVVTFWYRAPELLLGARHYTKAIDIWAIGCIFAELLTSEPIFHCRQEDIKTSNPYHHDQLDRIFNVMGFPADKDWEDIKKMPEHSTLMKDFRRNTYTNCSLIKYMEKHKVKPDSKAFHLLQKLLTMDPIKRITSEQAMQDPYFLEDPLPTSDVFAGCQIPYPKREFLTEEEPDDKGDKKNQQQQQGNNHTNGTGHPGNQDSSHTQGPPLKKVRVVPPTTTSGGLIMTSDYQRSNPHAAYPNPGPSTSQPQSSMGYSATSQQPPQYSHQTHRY
Sequence (P24863 whole entry partner): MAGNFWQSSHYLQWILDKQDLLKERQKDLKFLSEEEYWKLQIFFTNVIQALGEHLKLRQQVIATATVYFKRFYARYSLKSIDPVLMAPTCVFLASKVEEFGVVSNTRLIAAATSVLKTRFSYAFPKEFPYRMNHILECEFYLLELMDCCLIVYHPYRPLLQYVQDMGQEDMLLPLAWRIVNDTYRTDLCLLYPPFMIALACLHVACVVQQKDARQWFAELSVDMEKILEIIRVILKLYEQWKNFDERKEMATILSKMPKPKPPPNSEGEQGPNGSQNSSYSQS
Test: LanthaScreen binding to recombinant CDK8/Cyclin C
Settings: TR-FRET, Tracer 236 10 nM, CDK8/Cyclin C 5 nM
Counter-ions that a name gives are not always drawn.
reported metric: IC50 (nM)

Solved entries:
{"columns": ["compound", "u", "observed result"],
 "data": [
  ["COCCN(C)C(=O)c1cnc2c(N)ncc(-c3ccc(-c4cnn(CC(=O)N(C)C)c4)cc3)c2c1", "nM", 1.24],
  ["CN1CCN(C(=O)c2cnc3c(N)ncc(-c4ccc(-c5cnn(CC(=O)N(C)C)c5)cc4)c3c2)CC1 [Compound 3.49 × 2HCl, dihydrochloride]", "nM", 1.64],
  ["CN(C)C(=O)Cn1cc(-c2ccc(-c3cnc(N)c4ncc(C(=O)N5CCC5)cc34)cc2)cn1", "nM", 0.96],
  ["CN(C)C(=O)Cn1cc(-c2ccc(-c3cnc(N)c4ncc(C(=O)NC5CC5)cc34)cc2)cn1", "nM", 1.11],
  ["COCCn1cc(-c2ccc(-c3cnc(N)c4ncc(C(=O)NC5CC5)cc34)cc2)cn1", "nM", 1.1],
  ["CN1CCN(C(=O)Cn2cc(-c3ccc(-c4cnc(N)c5ncc(C(=O)NC6CC6)cc45)cc3)cn2)CC1", "nM", 1.1],
  ["CN1CCN(C(=O)Cn2cc(-c3ccc(-c4cnc(N)c5ncc(C(=O)N6CCN(C)CC6)cc45)cc3)cn2)CC1", "nM", 2.03],
  ["COCCn1cc(-c2ccc(-c3cnc(N)c4ncc(C(=O)NCC5CC5)cc34)cc2)cn1", "nM", 1.63],
  ["CN1CCN(C(=O)Cn2cc(-c3ccc(-c4cnc(N)c5ncc(C(=O)NCC6CC6)cc45)cc3)cn2)CC1", "nM", 1.4]
]}

I: CN1CCN(C(=O)c2cnc3c(N)ncc(-c4ccc(-c5cnn(CC(=O)N(C)C)c5)cc4)c3c2)CC1 [Compound 3.49]
II: CN(C)C(=O)Cn1cc(-c2ccc(-c3cnc(N)c4ncc(C(=O)NCC5CC5)cc34)cc2)cn1
III: COCCn1cc(-c2ccc(-c3cnc(N)c4ncc(C(=O)N5CCC5)cc34)cc2)cn1
Please rank these compounds by IC50 in descending order. Answer by listing the labels in the requested order.
I, III, II
(I: 1.85 nM, III: 1.27 nM, II: 0.88 nM)

----------
Experiment: Enzyme stability in human liver S9 fractions (Phase II)
Assay type: in vitro ADME
Details: pH 7.4; 0.5 mg/mL pooled human liver S9 fractions, 10 μM compound, 37° C.; read-out: Enzyme stability Liver S9 fraction CLint
Method: Measuring of enzyme stability of the present compounds enabled estimation of their stability towards the action of Phase II biotransformation enzymes. […] Based on the data obtained, candidates' enzyme stability in human liver S9 fractions was determined.
reported metric: microsomal CLint at 10 μM (µL/min/mg)

{"columns": ["molecule", "observed result"],
 "data": [
  ["COCCn1cc(-c2ccc(-c3cnc(N)c4ncc(C(=O)NCC5CC5)cc34)cc2)cn1 [Compound 3.45]", 1.1]
]}

P: COCCn1cc(-c2ccc(-c3cnc(N)c4ncc(C(=O)NC5CC5)cc34)cc2)cn1 [Compound 3.48]
Q: CN(C)C(=O)Cn1cc(-c2ccc(-c3cnc(N)c4ncc(C(=O)NC5CC5)cc34)cc2)cn1 [Compound 3.46]
R: CN1CCN(C(=O)Cn2cc(-c3ccc(-c4cnc(N)c5ncc(C(=O)NC6CC6)cc45)cc3)cn2)CC1 [Compound 3.47]
S: CN1CCN(C(=O)Cn2cc(-c3ccc(-c4cnc(N)c5ncc(C(=O)N6CCC6)cc45)cc3)cn2)CC1 [Compound 3.53]
Hey, quick one: sort these by microsomal CLint at 10 μM, largest value first please. Please write the labels in the order that was asked for.
S, P, R, Q

1: CN(C)C(=O)Cn1cc(-c2ccc(-c3cnc(N)c4ncc(C(=O)N5CCC5)cc34)cc2)cn1 [Compound 3.52]
2: CN1CCN(C(=O)c2cnc3c(N)ncc(-c4ccc(-c5cnn(CC(=O)N(C)C)c5)cc4)c3c2)CC1 [Compound 3.49]
Please indicate which has the smaller reported microsomal CLint at 10 μM: 1 , or 2 . Give the chosen item's label as your response.
2
(2: 1.4 µL/min/mg, 1: 2.4 µL/min/mg)

----------
Experiment: Permeability through Caco-2 cell monolayer
Type: in vitro ADME
Settings: human; Caco-2, A→B, 10 μM, pH 6.5/7.4, 2 hour incubation
reported metric: Papp A→B at 2 h, 10 μM (×10⁻⁶ cm/s)

Reference set (2 entries):
{"columns": ["compound", "reported metric", "observed result"],
 "data": [
  ["COCCn1cc(-c2ccc(-c3cnc(N)c4ncc(C(=O)N5CCC5)cc34)cc2)cn1 [Compound 3.54]", "Papp A→B at 2 h, 10 μM", 42.8],
  ["COCCn1cc(-c2ccc(-c3cnc(N)c4ncc(C(=O)NC5CC5)cc34)cc2)cn1 [Compound 3.48]", "Papp A→B at 2 h, 10 μM", 36.2]
]}

P: COCCn1cc(-c2ccc(-c3cnc(N)c4ncc(C(=O)N5CCN(C)CC5)cc34)cc2)cn1 [Compound 3.51]
Q: CN(C)C(=O)Cn1cc(-c2ccc(-c3cnc(N)c4ncc(C(=O)NCC5CC5)cc34)cc2)cn1 [Compound 3.43]
Between P and Q , which one shows the larger Papp A→B at 2 h, 10 μM value? Select an item and report its label.
P

1: COCCn1cc(-c2ccc(-c3cnc(N)c4ncc(C(=O)NCC5CC5)cc34)cc2)cn1 [Compound 3.45]
2: CN(C)C(=O)Cn1cc(-c2ccc(-c3cnc(N)c4ncc(C(=O)N5CCC5)cc34)cc2)cn1 [Compound 3.52]
Could you check which of 1 and 2 has a smaller value for Papp A→B at 2 h, 10 μM? // return label of chosen record
2
(2: 18.7 ×10⁻⁶ cm/s, 1: 34.5 ×10⁻⁶ cm/s)

----------
Assay: Enzyme stability in human liver microsomes (Phase I)
Format: in vitro ADME
Conditions: pH 7.4; 0.5 mg/mL pooled human liver microsomes, 10 μM compound, 37° C.
reported metric: microsomal CLint at 10 μM (µL/min/mg)

These solved cases illustrate the format of a correct answer.
{"columns": ["molecule", "observed result"],
 "data": [
  ["CN(C)C(=O)Cn1cc(-c2ccc(-c3cnc(N)c4ncc(C(=O)NC5CC5)cc34)cc2)cn1 [Compound 3.46]", 2.6],
  ["CN1CCN(C(=O)Cn2cc(-c3ccc(-c4cnc(N)c5ncc(C(=O)N6CCC6)cc45)cc3)cn2)CC1 [Compound 3.53]", 7.8],
  ["CN1CCN(C(=O)c2cnc3c(N)ncc(-c4ccc(-c5cnn(CC(=O)N(C)C)c5)cc4)c3c2)CC1 [Compound 3.49]", 7],
  ["COCCn1cc(-c2ccc(-c3cnc(N)c4ncc(C(=O)NCC5CC5)cc34)cc2)cn1 [Compound 3.45]", 39.6],
  ["CN(C)C(=O)Cn1cc(-c2ccc(-c3cnc(N)c4ncc(C(=O)N5CCC5)cc34)cc2)cn1 [Compound 3.52]", 7]
]}

A: CN1CCN(C(=O)Cn2cc(-c3ccc(-c4cnc(N)c5ncc(C(=O)NC6CC6)cc45)cc3)cn2)CC1 [Compound 3.47]
B: COCCn1cc(-c2ccc(-c3cnc(N)c4ncc(C(=O)NC5CC5)cc34)cc2)cn1 [Compound 3.48]
Kindly compare A with B and tell me which has the lower microsomal CLint at 10 μM figure. Your answer should be the label attached to the chosen record.
A
(A: 5.6 µL/min/mg, B: 18 µL/min/mg)

----------
Assay: Permeability through Caco-2 cell monolayer
Format: in vitro ADME
Settings: human; Caco-2, Papp B-A/Papp A-B
reported metric: efflux ratio at 2 h, 10 μM

{"columns": ["item smiles", "efflux ratio at 2 h, 10 μM"],
 "data": [
  ["CN(C)C(=O)Cn1cc(-c2ccc(-c3cnc(N)c4ncc(C(=O)N5CCC5)cc34)cc2)cn1", 1.66],
  ["COCCn1cc(-c2ccc(-c3cnc(N)c4ncc(C(=O)N5CCN(C)CC5)cc34)cc2)cn1", 1.88],
  ["COCCn1cc(-c2ccc(-c3cnc(N)c4ncc(C(=O)N5CCC5)cc34)cc2)cn1", 0.55],
  ["COCCn1cc(-c2ccc(-c3cnc(N)c4ncc(C(=O)NC5CC5)cc34)cc2)cn1", 0.64]
]}

a: CN(C)C(=O)Cn1cc(-c2ccc(-c3cnc(N)c4ncc(C(=O)NCC5CC5)cc34)cc2)cn1
b: COCCn1cc(-c2ccc(-c3cnc(N)c4ncc(C(=O)NCC5CC5)cc34)cc2)cn1
// pick larger efflux ratio at 2 h, 10 μM from pair: a vs b Your choice should be expressed through its label.
a
(a: 1.89, b: 0.37)

----------
Test: Stability of the compounds in human blood plasma
Format: in vitro ADME
Conditions: pooled human blood plasma, 10 μM, 4 hours at 37° C.
reported metric: Chemical stability in human blood plasma 4 h, % (%)

{"columns": ["item smiles", "observed result"],
 "data": [
  ["CN(C)C(=O)Cn1cc(-c2ccc(-c3cnc(N)c4ncc(C(=O)NC5CC5)cc34)cc2)cn1", 96.5],
  ["CN1CCN(C(=O)Cn2cc(-c3ccc(-c4cnc(N)c5ncc(C(=O)NC6CC6)cc45)cc3)cn2)CC1", 96.5],
  ["CN1CCN(C(=O)Cn2cc(-c3ccc(-c4cnc(N)c5ncc(C(=O)NCC6CC6)cc45)cc3)cn2)CC1", 100.0],
  ["COCCn1cc(-c2ccc(-c3cnc(N)c4ncc(C(=O)N5CCN(C)CC5)cc34)cc2)cn1", 100.0],
  ["CN1CCN(C(=O)c2cnc3c(N)ncc(-c4ccc(-c5cnn(CC(=O)N(C)C)c5)cc4)c3c2)CC1", 100.0],
  ["CN(C)C(=O)Cn1cc(-c2ccc(-c3cnc(N)c4ncc(C(=O)N5CCC5)cc34)cc2)cn1", 100.0],
  ["CN(C)C(=O)Cn1cc(-c2ccc(-c3cnc(N)c4ncc(C(=O)NCC5CC5)cc34)cc2)cn1", 100.0],
  ["CN1CCN(C(=O)Cn2cc(-c3ccc(-c4cnc(N)c5ncc(C(=O)N6CCC6)cc45)cc3)cn2)CC1", 100.0],
  ["COCCn1cc(-c2ccc(-c3cnc(N)c4ncc(C(=O)NC5CC5)cc34)cc2)cn1", 98.4],
  ["COCCn1cc(-c2ccc(-c3cnc(N)c4ncc(C(=O)N5CCC5)cc34)cc2)cn1", 94.6],
  ["COCCn1cc(-c2ccc(-c3cnc(N)c4ncc(C(=O)NCC5CC5)cc34)cc2)cn1", 91.2]
]}
